# Study target: full-length beta-Catenin (Uniprot ID P35222) (Homo sapiens (Human)) (UniProt P35222)
# Sequence (P35222 2-781 limits assumed): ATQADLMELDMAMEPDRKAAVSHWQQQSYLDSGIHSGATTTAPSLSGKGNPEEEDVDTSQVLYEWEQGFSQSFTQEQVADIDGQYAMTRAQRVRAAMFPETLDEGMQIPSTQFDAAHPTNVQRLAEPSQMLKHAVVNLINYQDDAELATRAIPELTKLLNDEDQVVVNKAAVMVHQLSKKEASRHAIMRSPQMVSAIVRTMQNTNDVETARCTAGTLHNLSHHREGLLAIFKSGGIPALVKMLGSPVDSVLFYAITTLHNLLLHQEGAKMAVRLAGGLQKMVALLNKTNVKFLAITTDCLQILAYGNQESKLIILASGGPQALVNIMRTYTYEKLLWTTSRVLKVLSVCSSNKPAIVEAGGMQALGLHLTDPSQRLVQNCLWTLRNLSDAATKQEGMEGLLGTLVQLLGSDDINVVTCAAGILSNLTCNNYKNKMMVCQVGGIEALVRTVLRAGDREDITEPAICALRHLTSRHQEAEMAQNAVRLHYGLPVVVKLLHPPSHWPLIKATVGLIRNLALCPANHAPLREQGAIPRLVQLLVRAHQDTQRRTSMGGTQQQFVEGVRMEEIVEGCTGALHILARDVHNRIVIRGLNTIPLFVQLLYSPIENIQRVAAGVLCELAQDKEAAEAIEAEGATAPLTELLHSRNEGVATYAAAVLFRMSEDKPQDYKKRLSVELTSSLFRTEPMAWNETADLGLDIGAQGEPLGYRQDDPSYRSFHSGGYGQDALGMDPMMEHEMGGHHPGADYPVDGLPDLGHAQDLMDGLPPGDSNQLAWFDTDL
# Measurement protocol: fluorescence polarization competition, full-length beta-catenin with 5FAM-TCF4(10-53) probe
Starred links: 1 amine or outer side, 2 acyl side, 3 side chain; linkers in the order of their positions; H or OH if unused. Positions of bridges follow the written chain, without caps; N, C: chain ends. Non-standard residues stand in square brackets, D forms with d. Primed or numbered codes have the meaning given here. PyrS2″ = (S)-3-amino-1-((pent-4-en-1-yloxy)carbonyl)pyrrolidine-3-carboxylic acid (stapling residue), C=CCCCOC(=O)N1CC[C@@](N[*:1])(C(=O)[*:2])C1; TfeGA = (S)-2-amino-3-((carboxymethyl)(2,2,2-trifluoroethyl)amino)propanoic acid, O=C([C@H](CN(CC(=O)[*:3])CC(F)(F)F)N[*:1])[*:2]; B5(3) = 2,2-bis(4-pentenyl)glycine (stitching residue), C=CCCCC(CCCC=C)(N[*:1])C(=O)[*:2]; Phe(2-Cl) = N[C@@H](Cc1ccccc1Cl)C(=O)O; Bta = N[C@@H](Cc1csc2ccccc12)C(=O)O; αAllylPro = C=CC[C@@]1(C(=O)O)CCCN1; tBuAla = CC(C)(C)C[C@H](N)C(=O)O; S8 = C=CCCCCCC[C@](C)(N)C(=O)O
Exercise: state measured EC50 for each of the binders provided.
Answers are plain numbers, in nM.

Binder: Ac-[αAllylPro]D[tBuAla][B5(3)]D[TfeGA]AAFF[S8][Phe(2-Cl)][Bta]Q-NH2 (staple 1-4, 4-11) [I-931]
Readout: EC50
Reported measurement: 221

Turning to the following binder.
Supply reported EC50 belonging to this binder: Ac-[αAllylPro]D[tBuAla][B5(3)]D[TfeGA]AAFF[PyrS2″][Phe(2-Cl)][Bta]Q-NH2 (staple 1-4, 4-11) [I-923]
27
